Numbers sourced from patent US20170247475A1.

# Target system: T1, recombinant human VEGF165 (human, UniProt P15692-4 27-191)
# T1 construct: also called hVEGF165; rhVEGF165
# T1 sequence (P15692 other isoform, or with tags, fused parts or gaps limits assumed): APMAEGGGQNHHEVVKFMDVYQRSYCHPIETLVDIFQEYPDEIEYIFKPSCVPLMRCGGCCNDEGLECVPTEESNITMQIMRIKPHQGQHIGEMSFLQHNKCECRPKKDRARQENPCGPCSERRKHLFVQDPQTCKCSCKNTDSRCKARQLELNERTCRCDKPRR
# Test name: VEGF165/hVEGFR1-Fc competition AlphaScreen
Below, each of the binders is paired with its reported % inhibition value.
Quantity kind: % inhibition (%)

| Binder | Quantity kind | Unit tag | Assay result |
| --- | --- | --- | --- |
| VEGFBII010 (VHH, bivalent VHH in one chain; also called VEGFBII23B04-35GS-23B04; homodimeric VEGFBII23B04) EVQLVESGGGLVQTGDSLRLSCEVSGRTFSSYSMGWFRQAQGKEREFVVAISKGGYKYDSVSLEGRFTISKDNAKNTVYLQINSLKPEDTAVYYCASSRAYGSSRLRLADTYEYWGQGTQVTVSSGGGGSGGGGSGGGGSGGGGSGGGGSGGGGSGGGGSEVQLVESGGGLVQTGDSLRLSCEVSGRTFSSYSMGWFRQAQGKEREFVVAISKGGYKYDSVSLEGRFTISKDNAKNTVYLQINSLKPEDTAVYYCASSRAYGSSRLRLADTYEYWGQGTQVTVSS | % inhibition | % | 70 |
| VEGFBII021 (VHH, biparatopic bivalent VHH in one chain; also called VEGFBII23B04-40GS-5B05) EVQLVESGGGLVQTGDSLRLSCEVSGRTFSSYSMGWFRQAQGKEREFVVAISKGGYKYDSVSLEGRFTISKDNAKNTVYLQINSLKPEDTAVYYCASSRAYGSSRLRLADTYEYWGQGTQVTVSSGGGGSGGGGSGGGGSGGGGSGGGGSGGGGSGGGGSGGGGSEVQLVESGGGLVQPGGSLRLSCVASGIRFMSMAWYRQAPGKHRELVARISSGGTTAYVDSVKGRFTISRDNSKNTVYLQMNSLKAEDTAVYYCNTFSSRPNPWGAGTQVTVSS | % inhibition | % | 100 |
| VEGFBII024 (VHH, biparatopic bivalent VHH in one chain; also called VEGFBII23B04-40GS-86H09; VEGFBI024) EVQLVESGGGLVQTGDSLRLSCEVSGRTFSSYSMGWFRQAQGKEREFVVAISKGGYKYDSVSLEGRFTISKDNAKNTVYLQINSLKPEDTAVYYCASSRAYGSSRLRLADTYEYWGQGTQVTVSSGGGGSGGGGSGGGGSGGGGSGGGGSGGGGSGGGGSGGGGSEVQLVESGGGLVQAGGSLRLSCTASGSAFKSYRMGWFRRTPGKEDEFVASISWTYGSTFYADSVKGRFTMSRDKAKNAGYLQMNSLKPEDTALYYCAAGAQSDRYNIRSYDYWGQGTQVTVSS | % inhibition | % | 98 |
